protocol text: Aqueous solubility in the sodium acetate buffer of the fibrillization assay
Type: physicochemical
experimental endpoint: solubility

Examples with answers:
[[record]]
compound = "CC(C)NC(=O)c1nn(-c2ccc(O)cc2)c(=O)c2c(N)scc12 [Compound 49]"
result = "> 200 µM"

[[record]]
compound = "Nc1scc2c(C(=O)NC3CC3)nn(-c3ccc(F)cc3)c(=O)c12 [Compound 43]"
result = "> 200 µM"

[[record]]
compound = "CC(C)NC(=O)c1nn(-c2ccc(F)cc2)c(=O)c2c(N)scc12 [Compound 42]"
result = "> 200 µM"

[[record]]
compound = "Nc1scc2c(C(=O)O)nn(-c3ccc(O)cc3)c(=O)c12 [Compound 40]"
result = "> 200 µM"

[[record]]
compound = "Nc1scc2c(C(=O)NCC(F)(F)F)nn(-c3ccc(F)cc3)c(=O)c12 [Compound 44]"
result = "> 200 µM"

[[record]]
compound = "CCOC(=O)c1nn(-c2ccc(F)cc2)c(=O)c2c(N)scc12 [Compound 26]"
result = "> 200 µM"

[[record]]
compound = "Nc1scc2c(C(=O)O)nn(-c3ccccc3Cl)c(=O)c12 [Compound 35]"
result = "> 200 µM"

[[record]]
compound = "CCOC(=O)c1nn(-c2ccccc2Cl)c(=O)c2c(N)scc12 [Compound 27]"
result = "12.8 µM"


Asked: Read the entry CCOC(=O)c1nn(-c2ccc(OC(F)(F)F)cc2)c(=O)c2c(N)scc12 [Compound 31] and write its reported solubility.
Given back: 12.8 µM

Asked: Read the entry Cc1nn(C)c(=O)c2c(N)scc12 [Compound 56] and write its reported solubility.
Given back: > 200 µM

Asked: Read the entry CCOC(=O)c1nn(-c2ccc(O)cc2)c(=O)c2c(N)scc12 [Compound 32] and write its reported solubility.
Given back: 12.8 µM

Asked: Read the entry Cc1nn(-c2ccccn2)c(=O)c2c(N)scc12 [Compound 60] and write its reported solubility.
Given back: > 200 µM
